test system: OVCAR-8; test: NCI tumour cell line growth inhibition, 48 h
Activity calls are given as the source filed them. Cut-off read from the data, not from the text of the source: active = GI50 up to about 1.1 µM and inactive = higher.
Measured metric: GI50

> print(dat)
                                    molecule  assayed.system  measured.metric               result
 1  CC1C2CC(C/C2=N/O)C1(C)C (stereo unspecified)         OVCAR-8             GI50  > 100 µM (inactive)
 2  O=c1c2cc(-c3ccccc3)cnc2sn1-c1ccc(Oc2ccccc2)cc1         OVCAR-8             GI50   26.9 µM (inactive)
 3  C[n+]1c2ccccc2c(C(=O)Nc2ccc(S(=O)(=O)Nc3ccnn3-c3ccccc3)cc2)c2ccccc21         OVCAR-8             GI50  > 100 µM (inactive)
 4  CC(C)(C)OC(=O)NCC(=O)N1CCCN(C(=O)CNC(=O)OC(C)(C)C)CC1         OVCAR-8             GI50  > 100 µM (inactive)
 5     OC(Cc1ccc2ccccc2n1)(C(F)(F)F)C(F)(F)F         OVCAR-8             GI50   > 10 µM (inactive)
 6          COc1ccccc1C#C/C=C\C#Cc1ccccc1C#N         OVCAR-8             GI50   5.35 µM (inactive)
 7  COC(=O)c1c2c(cc3c1CC1(Cc4ccc(C(C)=O)cc4C1)C3)CCC2 (stereo unspecified)         OVCAR-8             GI50   68.9 µM (inactive)
 8                           CCOC(CN=C=S)OCC         OVCAR-8             GI50   > 10 µM (inactive)
 9  COc1cc(/C=C(\OC(C)=O)c2ccc3c(c2)OCO3)cc(OC)c1OC         OVCAR-8             GI50   16.3 µM (inactive)
10    CCC(=O)Nc1ccc(NCC(=O)Nc2ccc(OC)cc2)cc1         OVCAR-8             GI50   19.7 µM (inactive)
11  CC1(c2cccs2)CC(c2cccs2)=C(C#N)C(=C(C#N)C#N)N1 (stereo unspecified)         OVCAR-8             GI50   17.3 µM (inactive)

----------
// GI50 lookup, one value per entry
system: A549; assay: NCI tumour cell line growth inhibition, 48 h
Activity calls are given as the source filed them. Rule as the data show it: active = GI50 up to about 1.1 µM and inactive = higher.
Measured metric: GI50

> print(dat)
                                   molecule  measured.metric               result
1  CC(=O)N(C(=O)CC(=O)N1N=C(c2ccccc2)C(/N=N/c2ccccc2[N+](=O)[O-])C1=O)c1ccc(Cl)cc1 (centres undefined)             GI50   > 10 µM (inactive)
2  O=P1(C(O)/C=C/c2ccccc2)N(Cc2ccccc2)[C@H](c2ccccc2)[C@@H](c2ccccc2)N1Cc1ccccc1 (some centres undefined)             GI50   6.92 µM (inactive)
3        Nc1ccc2nc(Nc3ccc(Cl)c(Cl)c3)cnc2c1             GI50   15.7 µM (inactive)
4  CCOP(=O)(C/C(O)=C1\C(=O)C(CCCCNC(=O)OC(C)(C)C)N(Cc2ccccc2)C1=O)OCC (centres undefined)             GI50  > 100 µM (inactive)

----------
tested on: MOLT-4; assay: NCI tumour cell line growth inhibition, 48 h
Calls of active or inactive are those of the source. Cut-off read from the data, not from the text of the source: active = GI50 up to about 1.1 µM and inactive = higher.
Classes used: active, inactive

Compound	Assigned class
CC(C)=CCc1c(O)ccc2ccc(=O)oc12 [OSTHENOL]	inactive
Cc1ccccc1C(=O)C#Cc1cn(C2CC(O)C(CO)O2)c(=O)[nH]c1=O (stereo not drawn)	inactive
COC(=O)[C@H](Cc1c[nH]c2ccccc12)NP(=O)(O)OC[C@H]1O[C@@H](n2cc(C)c(=O)[nH]c2=O)C[C@@H]1N=[N+]=[N-]	inactive
C=C1C(=O)O[C@H]2C/C(C)=C/CC[C@@]3(C)O[C@](C)(CC[C@@H]3I)[C@@H](I)C[C@@H]12	active
CCOc1cccc(/C=N/N=C2\C(=O)Nc3c(Cl)cc(Cl)cc32)c1O	inactive
COc1cc2oc(=O)ccc2cc1CC=C(C)C [SUBEROSIN]	inactive
COC(=O)C1c2cc3c(cc2C(OC2OC(C)C(OC)C(C)(OC)C2OC)CC1(C)O)C(=O)c1c(O)cc2c(c1C3=O)OC1OC2(C)C(O)C([N+](C)(C)[O-])C1O (stereo not drawn)	active
CC(C)(C)C1CCC2c3c([nH]c4ccccc34)C3C(=O)N(c4ccccc4)C(=O)C3C2C1 (stereo not drawn)	inactive

----------
test system: UACC-257; assay: NCI tumour cell line growth inhibition, 48 h
Activity calls are given as the source filed them. Rule as the data show it: active = GI50 up to about 1.1 µM and inactive = higher.
Measured metric: GI50

> print(dat)
                                    compound                result
 1  COC(=O)[C@]12CSC[C@H]1C[C@H](c1ccc(N(C)C)cc1)N2   > 100 µM (inactive)
 2  O=C1OC(C(O)CO)C(C(O)CO)OC1=O (configuration not stated)    > 10 µM (inactive)
 3  Cc1ccccc1-n1c(=O)nc2n(-c3ccc(C(C)(C)C)cc3)c3ccccc3cc-2c1=O    17.2 µM (inactive)
 4    COc1ccc(NC(=S)c2ccoc2C)cc1CC(=O)OC(C)C    33.4 µM (inactive)
 5         O=C(O)CSc1cc(-c2ccccc2)nc2ccccc12    71.9 µM (inactive)
 6       CC1(C)Cc2cc(C(=O)O)c3c(c2C1=O)COCC3   > 100 µM (inactive)
 7   Oc1ccc(Cn2c(-c3ccc(O)cc3)nc3ccccc32)cc1   > 100 µM (inactive)
 8  C1C2CC3CC1CC(Nc1nc(NC45CC6CC(CC(C6)C4)C5)nc(NC45CC6CC(CC(C6)C4)C5)n1)(C2)C3  > 28.8 µM (inactive)
 9               COC(=O)CCC(=O)Nc1cc(C)ccc1C   > 100 µM (inactive)
10  CC(=O)N(C(=O)CC(=O)N1N=C(c2ccccc2)C(/N=N/c2ccccc2[N+](=O)[O-])C1=O)c1ccc(Cl)cc1 (configuration not stated)    > 10 µM (inactive)
11  CC(=O)C1C(=O)C(C(C)=O)C2C3C=CC(C3)C12 (configuration not stated)   > 100 µM (inactive)
12                  CC12C(=O)CC(CC1=O)C2(C)C   > 100 µM (inactive)

----------
system: EKVX; experiment: NCI tumour cell line growth inhibition, 48 h
Calls of active or inactive are those of the source. Rule as the data show it: active = GI50 up to about 1.1 µM and inactive = higher.
Classes used: Y (active), N (inactive)

Compound	Assigned class
O=C1NNC2(C(=O)N1)c1ccccc1-c1ccccc12	N
Cc1n(CC(C)C)c2c([n+]1C)C(=O)c1ccccc1C2=O	Y
CCCCNC1=C(C(=O)OCC)/C(=N/NC(=O)c2ccccc2O)CO1	N
CCCCn1cc(C(=O)O)c(=O)c2c3sccc3ccc21	N
CC(=O)OC1C=C(C=O)C(O)(C=O)C2(C)CCCC(C)(C)C12 (configuration not stated)	N
Cn1ncc2c(=O)[nH]c(-c3ccccc3)nc21	N
CCn1c2c(c3ccccc31)C(c1ccccc1)CC1C(=O)N(c3ccccc3)C(=O)C21 (configuration not stated)	N
COC(=O)N/N=c1\cc(C(=O)Nc2ccc(C)c(C)c2)oc2cc(O)ccc12	N
CC(=O)Oc1c(C)c2c(O)c3c1C1=C(OCOC1=C(C)C3=O)/C(C)=C/C(C)(O)C(O)C(C)C(O)C1C(=O)OC(C(C)C1O)C(C)(O)/C=C\C=C(C)C(=O)N2 (configuration not stated)	N
CCOc1nc(OCC)nc(-c2cccn2-c2ccccc2)n1	N
Cc1nnc(N/N=C2\C(=O)Nc3ccccc32)n1N	N
N/C(=N\O)N/N=C\c1ccccc1O	N
CC[C@@H]1/C=C/C=C/C[C@H](C)[C@@H](O)[C@](C)(O)C(=O)[C@H](C)[C@@H](O)[C@H](C)C(=O)[C@H](C)[C@@H](O)[C@H](C)/C=C/C(=O)O[C@H]2[C@@H](C)[C@@H](CC1)O[C@]1(O[C@H](CC(C)O)[C@H](C)CC1=O)[C@@H]2C (some centres not stated)	Y
O=C(O)CCC(=O)Nc1ccc2ccccc2c1	N
COC(=O)c1csc(-c2nc(CCNC(=O)OC(C)(C)C)sc2Br)n1	N
COc1ccc(-n2c(=O)c3nc(S)[nH]c3n(-c3ccc(OC)cc3)c2=S)cc1	N
CC1(C)Cc2cc(C(=O)O)c3c(c2C1=O)COCC3	N
CCOc1ccc(OP2(=O)NC(=O)C=C(C)N2)cc1 (configuration not stated)	N
C(=NCCN1CCOCC1)=NC1CCCCC1	N
CCCCCCCCC1=CCC(CN(C)C)C1=O (configuration not stated)	N
O=C1CSC(c2ccc([N+](=O)[O-])cc2)N1c1ccc(-n2c(-c3ccccc3)nc3ccccc3c2=O)cc1 (configuration not stated)	N
COc1cccc(C(C#N)NNC(=O)c2c(Cl)c(Cl)c(Cl)c(Cl)c2-c2nc3cc(C(=O)c4ccccc4)ccc3[nH]2)c1O (configuration not stated)	N
